Known viability, T/C of a selection of molecules
Tested on: 648629-189-R-J1-PDC spheroids with HUVEC/MSC, viability;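 note: spheroids exposed to agents for seven days before reading; percent of vehicle control luminescence where 100% = DMSO treated spheroids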
protocol.notes: Anticancer human tumor 648629-189-R-J1-PDC patient-derived bladder carcinoma cell line growth inhibition [PI3K]
condition.details: second compound 0.01 µM; first compound 3.16 µM; hits give low values
Field: numeric (%). Do not append units.

Here's what some known entries look like.
CC(C)NCC(C(=O)N1CCN(c2ncnc3c2C(C)CC3O)CC1)c1ccc(Cl)cc1 (stereo not drawn) + COc1c(OCCCN2CCOCC2)ccc2c3n(c(=NC(=O)c4cnc(N)nc4)nc12)CCN3 :: 26.2
CNC(=O)c1ccc(N2C(=S)N(c3ccc(C#N)c(C(F)(F)F)c3)C(=O)C2(C)C)cc1F + COc1c(OCCCN2CCOCC2)ccc2c3n(c(=NC(=O)c4cnc(N)nc4)nc12)CCN3 :: 107

Consider the additional molecule presented here.
Need viability, T/C of Cn1nccc1Nc1nccc(-c2ccn(C(CO)c3ccc(Cl)c(F)c3)c(=O)c2)n1 (stereo not drawn) + CC(Nc1ccc2c(c1)OCCn1cc(N3C(=O)OCC3C(F)F)nc1-2)C(N)=O , thanks.
105
